Source listed as ChEMBL document CHEMBL3885861.

- Species on record: Rattus norvegicus
- procedure details: Open TG-GATES - Regimen: Daily Repeat
- Assay type: toxicity, organism-based, Sprague-Dawley
- Design: regimen Daily Repeat, gender Male, age 6 weeks
- condition description: in vivo, po, 0 mg/kg, […], tissue Plasma, route gavage, dose level Control, time 7 day
test readout: BUN (mg/dL)
Answers are plain numbers, in mg/dL.

The following compounds have reported results that may help.
CN(C)C(=N)N=C(N)N
16.4
ClC(Cl)(Cl)Cl [CARBON TETRACHLORIDE]
16.2
CC[C@H]1[C@@H]2C[C@H]3[C@@H]4N(C)c5ccccc5[C@]45C[C@@H]([C@@H]2[C@H]5O)N3[C@@H]1O
18.4
O=NN(CCCl)C(=O)NC1CCCCC1
19.2

# batch: return BUN for each of the 4 compounds below
1. CCC1(c2ccccc2)C(=O)NC(=O)NC1=O
2. CN(C)CCC=C1c2ccccc2COc2ccccc21 [DOXEPIN]
3. CCCCc1oc2ccccc2c1C(=O)c1cc(I)c(OCCN(CC)CC)c(I)c1
4. CC(C)N(CCC(C(N)=O)(c1ccccc1)c1ccccn1)C(C)C (stereo unspecified) [DISOPYRAMIDE]

19.2
18.8
16.6
19

# per-item lookup of BUN; items listed below
1. CCc1oc2ccccc2c1C(=O)c1cc(Br)c(O)c(Br)c1
2. OCCOCCN1CCN(C(c2ccccc2)c2ccc(Cl)cc2)CC1 (stereo unspecified) [HYDROXYZINE]
3. CC1=C(CC(=O)O)c2cc(F)ccc2/C1=C\c1ccc([S+](C)[O-])cc1 (stereo unspecified)

1. 20.4
2. 16.6
3. 16.8
